# reported pIC50; entries follow
- Tested on: A2780cis cisplatin-resistant ovarian cancer cells
- ASSAY DETAILS: MTT cytotoxicity assay, A2780cis cells
- Format: cell-based, human
- TEST SETTINGS: 72 h exposure, mean ± SD of three experiments
- Procedure: The stability of [1]-Cl-[4]-Cl was evaluated in aqueous phosphate-buffered solution (PBS, pH 7.4) using UV–visible spectroscopy. […] The cytotoxicity of the compounds was measured according to a standard MTT assay against human breast cancer (MCF7 and MCF7CR) and ovarian cancer (A2780 and A2780cis) cell lines, and also nontumorigenic MCF10A and human embryonic kidney HEK293T cells (Table ). All cell lines were grown in a humidified 5% CO2 environment at 37 °C in dedicated media. […]
Hey, just a heads up that pIC50 is the negative log base 10 of the concentration in molar.

Query (molecule): Cc1ccc(C(C)C)cc1.Oc1ccc(/C=C/c2cc(/C=C/c3ccc(O)cc3)n(-c3ccccn3)n2)cc1.[Cl-].[Cl][Os+] [[4]Cl, [Os(p-cym)(HZPbdcurc)Cl]Cl] ; field requested: pIC50
5.27

Query (molecule): COc1cc(/C=C/c2cc(/C=C/c3ccc(O)c(OC)c3)n(-c3ccccn3)n2)ccc1O.Cc1ccc(C(C)C)cc1.[Cl-].[Cl][Ru+] [[1]Cl, [Ru(p-cym)(HZPcurc)Cl]Cl] ; field requested: pIC50
5.18

Query (molecule): Cc1ccc(C(C)C)cc1.Oc1ccc(/C=C/c2cc(/C=C/c3ccc(O)cc3)n(-c3ccccn3)n2)cc1.[Cl-].[Cl][Ru+] [[3]Cl, [Ru(p-cym)(HZPbdcurc)Cl]Cl] ; field requested: pIC50
5.57

Query (molecule): COc1cc(/C=C/c2cc(/C=C/c3ccc(O)c(OC)c3)n(-c3ccccn3)n2)ccc1O.Cc1ccc(C(C)C)cc1.[Cl-].[Cl][Os+] [[2]Cl, [Os(p-cym)(HZPcurc)Cl]Cl] ; field requested: pIC50
4.92

Query (molecule): N.N.[Cl][Pt][Cl] [Cisplatin, reference compound] ; field requested: pIC50
5.15

###

- Test system: dsDNA oligomer
- ASSAY DETAILS: SPR biosensor binding to surface-anchored dsDNA oligomer
- TEST SETTINGS: surface-blocked DNA oligomer
Field 'label' (enum: T / F). Set to T when kass is strictly under 10000 M^–1s^–1; else F.

Would you please look over these solved cases?
INSERT INTO assay_data (compound, tested_system, cat) VALUES
  ('Cc1ccc(C(C)C)cc1.Oc1ccc(/C=C/c2cc(/C=C/c3ccc(O)cc3)n(-c3ccccn3)n2)cc1.[Cl-].[Cl][Os+] [[4]Cl, [Os(p-cym)(HZPbdcurc)Cl]Cl]', 'dsDNA oligomer', 'T'),
  ('COc1cc(/C=C/c2cc(/C=C/c3ccc(O)c(OC)c3)n(-c3ccccn3)n2)ccc1O', 'dsDNA oligomer', 'T'),
  ('COc1cc(/C=C/c2cc(/C=C/c3ccc(O)c(OC)c3)n(-c3ccccn3)n2)ccc1O.Cc1ccc(C(C)C)cc1.[Cl-].[Cl][Ru+] [[1]Cl, [Ru(p-cym)(HZPcurc)Cl]Cl]', 'dsDNA oligomer', 'F'),
  ('COc1cc(/C=C/c2cc(/C=C/c3ccc(O)c(OC)c3)n(-c3ccccn3)n2)ccc1O.Cc1ccc(C(C)C)cc1.[Cl-].[Cl][Os+] [[2]Cl, [Os(p-cym)(HZPcurc)Cl]Cl]', 'dsDNA oligomer', 'T');

Field: next compound
Decide: kass of `Oc1ccc(/C=C/c2cc(/C=C/c3ccc(O)cc3)n(-c3ccccn3)n2)cc1` strictly below 10000 M^–1s^–1?
T

###

# reported pIC50; entries follow
- TESTED SYSTEM: 20S proteasome PGPH (caspase-like) activity (Homo sapiens, UniProt P28072)
- ASSAY DETAILS: Isolated 20S proteasome, peptidyl glutamyl peptide hydrolase (caspase-like) activity (Z-Leu-Leu-Glu-AMC)
- TEST SETTINGS: 0–100 μM, 1 h, 37 °C, pH 8.0
pIC50: −log10 of the molar value.

INSERT INTO results (compound, assay_result) VALUES
  ('Cc1ccc(C(C)C)cc1.Oc1ccc(/C=C/c2cc(/C=C/c3ccc(O)cc3)n(-c3ccccn3)n2)cc1.[Cl-].[Cl][Os+] [[4]Cl, [Os(p-cym)(HZPbdcurc)Cl]Cl]', '< 4.00');

Query (compound): COc1cc(/C=C/c2cc(/C=C/c3ccc(O)c(OC)c3)n(-c3ccccn3)n2)ccc1O [HZPcurc] ; field requested: pIC50
< 4.00

Query (compound): COc1cc(/C=C/c2cc(/C=C/c3ccc(O)c(OC)c3)n(-c3ccccn3)n2)ccc1O.Cc1ccc(C(C)C)cc1.[Cl-].[Cl][Os+] [[2]Cl, [Os(p-cym)(HZPcurc)Cl]Cl] ; field requested: pIC50
< 4.00

###

- Tested on: 5′-biotinylated dsDNA oligomer (DNA, duplex) TGTAATCGTAGGTTGGTCCCATCACCCACC/GGTGGGTGATGGGACCAACCTACGATTACA
- ASSAY DETAILS: SPR biosensor kinetics, immobilised DNA
- TEST SETTINGS: PBS buffer; monoexponential fit, single site
MEASURED PROPERTY: KD (µM)
Only the number, expressed in µM, is required.

INSERT INTO assay_data (molecule, unit_label, assay_result) VALUES
  ('COc1cc(/C=C/c2cc(/C=C/c3ccc(O)c(OC)c3)n(-c3ccccn3)n2)ccc1O', 'µM', 4.5),
  ('COc1cc(/C=C/c2cc(/C=C/c3ccc(O)c(OC)c3)n(-c3ccccn3)n2)ccc1O.Cc1ccc(C(C)C)cc1.[Cl-].[Os+2]', 'µM', 4.2),
  ('COc1cc(/C=C/c2cc(/C=C/c3ccc(O)c(OC)c3)n(-c3ccccn3)n2)ccc1O.Cc1ccc(C(C)C)cc1.[Cl-].[Ru+2]', 'µM', 0.29);

Query (molecule): `Oc1ccc(/C=C/c2cc(/C=C/c3ccc(O)cc3)n(-c3ccccn3)n2)cc1` ; field requested: KD
17.0

Query (molecule): `Cc1ccc(C(C)C)cc1.Oc1ccc(/C=C/c2cc(/C=C/c3ccc(O)cc3)n(-c3ccccn3)n2)cc1.[Cl-].[Ru+2]` ; field requested: KD
2.2

Query (molecule): `Cc1ccc(C(C)C)cc1.Oc1ccc(/C=C/c2cc(/C=C/c3ccc(O)cc3)n(-c3ccccn3)n2)cc1.[Cl-].[Os+2]` ; field requested: KD
39.2

###

- ASSAY DETAILS: Solubility in water (qualitative)
- Format: physicochemical
MEASURED PROPERTY: solubility in water

INSERT INTO assay_data (molecule, measured_property, assay_result) VALUES
  ('Cc1ccc(C(C)C)cc1.Oc1ccc(/C=C/c2cc(/C=C/c3ccc(O)cc3)n(-c3ccccn3)n2)cc1.[Cl-].[Cl][Os+] [[4]Cl, [Os(p-cym)(HZPbdcurc)Cl]Cl]', 'solubility in water', 'partly soluble in H2O'),
  ('Cc1ccc(C(C)C)cc1.Oc1ccc(/C=C/c2cc(/C=C/c3ccc(O)cc3)n(-c3ccccn3)n2)cc1.[Cl-].[Cl][Ru+] [[3]Cl, [Ru(p-cym)(HZPbdcurc)Cl]Cl]', 'solubility in water', 'partly soluble in H2O');

###

- TESTED SYSTEM: 20S proteasome chymotrypsin-like activity (Homo sapiens)
- ASSAY DETAILS: Isolated 20S proteasome, chymotrypsin-like activity (Suc-Leu-Leu-Val-Tyr-AMC)
- TEST SETTINGS: 0–100 μM, 1 h, 37 °C, pH 8.0
- Method: Proteasome inhibition by the compounds was evaluated with respect to three major activities of the 20S proteasome, namely, chymotrypsin-like, trypsin-like, and caspase-like activities. […]
# reported IC50; entries follow

Some compounds with known IC50 results, for comparison:
INSERT INTO results (compound, assay_result) VALUES
  ('COc1cc(/C=C/c2cc(/C=C/c3ccc(O)c(OC)c3)n(-c3ccccn3)n2)ccc1O.Cc1ccc(C(C)C)cc1.[Cl-].[Cl][Ru+] [[1]Cl, [Ru(p-cym)(HZPcurc)Cl]Cl]', '> 100 µM'),
  ('Cc1ccc(C(C)C)cc1.Oc1ccc(/C=C/c2cc(/C=C/c3ccc(O)cc3)n(-c3ccccn3)n2)cc1.[Cl-].[Cl][Ru+] [[3]Cl, [Ru(p-cym)(HZPbdcurc)Cl]Cl]', '> 100 µM'),
  ('Oc1ccc(/C=C/c2cc(/C=C/c3ccc(O)cc3)n(-c3ccccn3)n2)cc1', '> 100 µM'),
  ('Cc1ccc(C(C)C)cc1.Oc1ccc(/C=C/c2cc(/C=C/c3ccc(O)cc3)n(-c3ccccn3)n2)cc1.[Cl-].[Cl][Os+] [[4]Cl, [Os(p-cym)(HZPbdcurc)Cl]Cl]', '98 µM');

Query (compound): COc1cc(/C=C/c2cc(/C=C/c3ccc(O)c(OC)c3)n(-c3ccccn3)n2)ccc1O.Cc1ccc(C(C)C)cc1.[Cl-].[Cl][Os+] [[2]Cl, [Os(p-cym)(HZPcurc)Cl]Cl] ; field requested: IC50
84 µM

Query (compound): `COc1cc(/C=C/c2cc(/C=C/c3ccc(O)c(OC)c3)n(-c3ccccn3)n2)ccc1O` ; field requested: IC50
> 100 µM
